molecular target: Somatostatin receptor type 2 (Homo sapiens, UniProt P30874); experiment: Binding affinity towards human Somatostatin receptor type 2 (sst2) using Tyr11-[125I]-SRIF as radioligand was determined in CHO cells
Sequence (P30874 whole entry): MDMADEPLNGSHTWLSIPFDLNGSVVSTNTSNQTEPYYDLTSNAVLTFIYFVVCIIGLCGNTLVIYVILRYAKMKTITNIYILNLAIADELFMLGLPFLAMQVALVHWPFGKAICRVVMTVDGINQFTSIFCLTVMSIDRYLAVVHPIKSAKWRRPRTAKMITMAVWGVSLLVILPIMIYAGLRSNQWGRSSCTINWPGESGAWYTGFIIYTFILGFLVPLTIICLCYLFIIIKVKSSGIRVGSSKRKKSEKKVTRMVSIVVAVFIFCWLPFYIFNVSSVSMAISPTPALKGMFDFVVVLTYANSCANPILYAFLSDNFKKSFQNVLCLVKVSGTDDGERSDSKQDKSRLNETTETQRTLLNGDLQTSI
Positions of bridges follow the written chain, without caps; N, C: chain ends. Non-standard residues stand in square brackets, D forms with d. Residues, ends and D or L forms follow the SMILES beside them.
READOUT_NAME: Ki (nM)

Answered examples (4):
CC(C)[C@@H]1NC(=O)[C@H](CCCCN)NC(=O)[C@@H](Cc2c[nH]c3ccccc23)NC(=O)[C@H](Cc2ccc(O)cc2)NC(=O)[C@@H](NC(=O)[C@H](N)Cc2ccccc2)CSSC[C@@H](C(=O)N[C@@H](Cc2c[nH]c3ccccc23)C(N)=O)NC1=O [VAPREOTIDE] (H-[dF]CY[dW]KVCW-NH2; disulfide 2-7); 0.0794
C[C@H](N)C(=O)NCC(=O)N[C@H]1CSSC[C@@H](C(N)=O)NC(=O)[C@H](CO)NC(=O)[C@H]([C@@H](C)O)NC(=O)[C@H](Cc2ccccc2)NC(=O)[C@H]([C@@H](C)O)NC(=O)[C@H](CCCCN)NC(=O)[C@H](Cc2c[nH]c3ccccc23)NC(=O)[C@H](C)NC(=O)[C@H](Cc2ccccc2)NC(=O)[C@H](CC(N)=O)NC(=O)[C@H](CCCCN)NC1=O (H-AGCKNFAWKTFTSC-NH2; disulfide 3-14); 20
C[C@H](N)C(=O)NCC(=O)N[C@H]1CSSC[C@@H](C(N)=O)NC(=O)[C@H](CO)NC(=O)[C@H]([C@@H](C)O)NC(=O)[C@H](C)NC(=O)[C@H]([C@@H](C)O)NC(=O)[C@H](CCCCN)NC(=O)[C@H](Cc2c[nH]c3ccccc23)NC(=O)[C@H](Cc2ccccc2)NC(=O)[C@H](Cc2ccccc2)NC(=O)[C@H](CC(N)=O)NC(=O)[C@H](CCCCN)NC1=O (H-AGCKNFFWKTATSC-NH2; disulfide 3-14); 6.31
C[C@H](N)C(=O)NCC(=O)N[C@H]1CSSC[C@@H](C(N)=O)NC(=O)[C@H](CO)NC(=O)[C@H]([C@@H](C)O)NC(=O)[C@H](Cc2ccccc2)NC(=O)[C@H]([C@@H](C)O)NC(=O)[C@H](C)NC(=O)[C@H](Cc2c[nH]c3ccccc23)NC(=O)[C@H](Cc2ccccc2)NC(=O)[C@H](Cc2ccccc2)NC(=O)[C@H](CC(N)=O)NC(=O)[C@H](CCCCN)NC1=O (H-AGCKNFFWATFTSC-NH2; disulfide 3-14); 1000

(1) NCCCC[C@@H]1NC(=O)[C@@H](Cc2c[nH]c3ccccc23)NC(=O)[C@H](CCCN=C(N)N)NC(=O)[C@@H]2C[C@@H](OC(=O)NCCN)CN2C(=O)[C@H](Cc2ccccc2)NC(=O)[C@H](Cc2ccc(OCc3ccccc3)cc2)NC1=O
(2) NCCCCCNC(=O)O[C@@H]1C[C@H]2C(=O)N[C@@H](Cc3ccccc3)C(=O)N[C@H](Cc3c[nH]c4ccccc34)C(=O)N[C@@H](CCCCN)C(=O)N[C@@H](Cc3ccc(OCc4ccccc4)cc3)C(=O)N[C@@H](Cc3ccccc3)C(=O)N2C1
Quick check, higher Ki between 1 and 2 ? Output the label that corresponds to your choice.
1

* * *

molecular target: Somatostatin receptor type 4 (Homo sapiens, UniProt P31391); experiment: Binding affinity towards human Somatostatin receptor type 4 (sst4) using Tyr11-[125I]-SRIF as radioligand was determined in CHO cells
Sequence (P31391 whole entry): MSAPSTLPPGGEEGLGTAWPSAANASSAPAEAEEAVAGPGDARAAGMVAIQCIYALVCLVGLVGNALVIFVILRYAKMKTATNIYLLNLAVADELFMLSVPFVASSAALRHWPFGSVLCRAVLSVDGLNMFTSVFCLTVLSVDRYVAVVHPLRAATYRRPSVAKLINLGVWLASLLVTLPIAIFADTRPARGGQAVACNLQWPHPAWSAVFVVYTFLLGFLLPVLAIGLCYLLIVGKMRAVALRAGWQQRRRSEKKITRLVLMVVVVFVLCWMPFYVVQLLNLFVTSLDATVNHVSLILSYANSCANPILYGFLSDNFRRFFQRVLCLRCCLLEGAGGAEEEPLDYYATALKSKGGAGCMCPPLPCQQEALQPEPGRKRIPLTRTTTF
READOUT_NAME: Ki (nM)

(a) NCCCC[C@@H]1NC(=O)[C@@H](Cc2c[nH]c3ccccc23)NC(=O)[C@H](CCCN=C(N)N)NC(=O)[C@@H]2C[C@@H](OC(=O)NCCN)CN2C(=O)[C@H](Cc2ccccc2)NC(=O)[C@H](Cc2ccc(OCc3ccccc3)cc2)NC1=O
(b) NCCCCCNC(=O)O[C@@H]1C[C@H]2C(=O)N[C@@H](Cc3ccccc3)C(=O)N[C@H](Cc3c[nH]c4ccccc34)C(=O)N[C@@H](CCCCN)C(=O)N[C@@H](Cc3ccc(OCc4ccccc4)cc3)C(=O)N[C@@H](Cc3ccccc3)C(=O)N2C1
Returns: the argument ( a or b ) having the larger Ki. Bench note: the answer is the label of the chosen record.
b
(b: 631 nM, a: 316 nM)
